# Protocol notes: Cmax in dog at 3 mg/kg, iv
# Format: ADME, organism-based, Canis lupus familiaris
# Design: dose 3 mg/kg, route intravenous
# Condition: in vivo
Endpoint label: Cmax (ng/mL)
Give bare numbers, in ng/mL.

// sample Cc1c(N2CCCC2=O)cccc1S(=O)(=O)N[C@@H](CNC(=O)c1ccc(Cl)s1)C(=O)N1CCN(C)CC1.Cl , its Cmax was 3500

====

# Protocol notes: AUC in dog at 3 mg/kg, iv
# Assay type: ADME, organism-based, Canis lupus familiaris
# Parameters: dose 3 mg/kg, route intravenous
# Condition: plasma
Endpoint label: AUC (ng·h/mL)
Numbers only, in ng·h/mL.

// sample Cc1c(N2CCCC2=O)cccc1S(=O)(=O)N[C@@H](CNC(=O)c1ccc(Cl)s1)C(=O)N1CCN(C)CC1.Cl , its AUC was 1800

Cited source: ChEMBL document CHEMBL3091444
